Test system: COLO 205 colon
Experiment: NCI tumour cell line growth inhibition, 48 h
Measure: TGI (µM)
API: value field is a number in µM; no unit string.

Sample answers from the record:
Molecule	TGI [µM]
NC(=O)c1cc2c3ccccc3ccn2c1-c1ccccc1	2.31
CN(C)CC1CCC/C(=C\c2ccc(OC(=O)c3ccc(Cl)cc3)cc2)C1=O (stereo not drawn)	4.81
O=C1C=CC(=O)c2c(O)c(N3CCC[C@H]3CO)c(Cl)c(O)c21	3.22

Next molecule, TGI to be filled in.
Field request: TGI | item: `Cc1c(CN2CCN(C)CC2)c(CN2CCN(C)CC2)c(C)n1-c1ccc(Cl)cc1`
55.5

====

Test system: SK-MEL-28 melanoma
Experiment: NCI tumour cell line growth inhibition, 48 h
Measure: TGI

Molecule	TGI
OCCOCn1nncc1Cn1ncc2c(SCc3ccccc3)ncnc21	> 100 µM
CCP(=O)(OC)C1=CCN(C(=O)OCC[Si](C)(C)C)CC1 (stereo unspecified)	> 100 µM
O=C(O)c1cccc2cccc(-c3cccc4cccc(C(=O)O)c34)c12	> 100 µM
CCOC(=O)c1cc(/C=C/C(C)=C/C(=O)OC)oc1C	> 100 µM

Looking for the measured TGI of `CCCCN(CCCC)c1c([N+](=O)[O-])c(=O)nc2ccccn12` , can you help?
54 µM

Value lookup for TGI; key = CN1CC[C@]2(C)c3ccc(O)cc3CC3CCCC1C32C (stereo partly specified)
> 100 µM

Which value of TGI has been reported for `CC[C@]1(O)C(=O)OCc2c1cc1n(c2=O)Cc2cc3c(N)cccc3nc2-1` in the records?
> 100 µM

Would you kindly share the measured TGI for `S=C(N/N=C\C(=N/NC(=S)N1CCCCC1)c1ccccc1)N1CCCCC1` ?
3.65 µM

So what does the record say about TGI for CC(C)(C)OC(=O)NC(Cc1ccccc1)NC(=O)NC(=O)OCc1ccccc1 (stereo unspecified) ?
> 100 µM

Please report the recorded TGI for NC(=O)c1csc(C2(O)COC(CO)C2O)n1 (stereo unspecified) .
> 100 µM

Form field: reported TGI of `CO[C@H]1SC[C@H](OC(C)=O)[C@H](OC(C)=O)[C@H]1OC(C)=O`
> 100 µM

====

Recorded GI50, one value per entry.
System: MDA-MB-231 breast
Experiment: NCI tumour cell line growth inhibition, 48 h

Please review the following examples before continuing.
Compound	GI50
O=C(O)c1ccc2c(c1)CCCC(c1ccc(Cl)cc1Cl)=C2c1ccc(O[C@H]2CCN(CCCF)C2)cc1	16.4 µM
COc1ccc(Cn2cc3c(c2)-c2oncc2CC3)cc1	9.47 µM

Item under review: NC(N)=NCCC1OC(=O)C2=C1c1c(O)ccc3nccc(c13)O2 (stereo not given) . Reported GI50?
> 100 µM

Which GI50 is listed for CN1C(=O)N(C)C2C1NN=c1s/c(=C\c3ccc(F)cc3)c(=O)n12 (stereo not given) ?
4.69 µM

Entry under review: `Cc1sc2nc3c4ccccc4c(NCCCN(C)C)nn3c(=O)c2c1C` . Reported GI50?
2.15 µM

====

Tested on: A498 renal
Experiment: NCI tumour cell line growth inhibition, 48 h
Measure: TGI

Molecule	TGI
O=C1C=CC(=O)c2c(O)c(N3CCC[C@H]3CO)c(Cl)c(O)c21	> 10 µM
Cc1cccc(C)c1NC(=O)C1C(=O)N(c2c(C)cccc2C)C(=O)/C1=N\NC(N)=S (stereo not given)	> 100 µM
COc1ccc(Cn2c3c(cc(OS(=O)(=O)C(F)(F)F)c2=O)Cc2ccccc2-3)cc1	> 100 µM
C=C1C(=O)O[C@H]2[C@H]1CC/C(COC(=O)c1cc3cc(Cl)ccc3[nH]1)=C\CC[C@@]1(C)O[C@@H]21	9.17 µM
COC1OC(CO)C(O)C1N (stereo not given)	> 100 µM

Given the entry `OCCOCn1nncc1Cn1ncc2c(SCc3ccccc3)ncnc21` , report its measured TGI.
> 100 µM

Field request: TGI | item: `NCCCCNCCCNC(=O)c1nc(-c2nc(CCN)sc2Cl)sc1Cl`
> 100 µM

Query: TGI; subject: `CC1=C(C(=O)Nc2cccc(Cl)c2)C(c2ccccc2F)C(C(=O)Nc2cccc(Cl)c2)=C(C)N1`
38.6 µM

# input molecule: CC(CCC(=O)O)C(=O)O (stereo not given) ; wanted: its TGI
> 100 µM

# lookup: TGI of `CCCCOc1ccc(OCCCCCCCCCC[N+](C)(C)C)cc1`
28.6 µM
